Sourced from ChEMBL document CHEMBL4804286

# system tested: Cyclin-dependent kinase 8/19 (Homo sapiens, UniProt P49336+Q9BWU1)
# Sequence (P49336 whole entry, looked up): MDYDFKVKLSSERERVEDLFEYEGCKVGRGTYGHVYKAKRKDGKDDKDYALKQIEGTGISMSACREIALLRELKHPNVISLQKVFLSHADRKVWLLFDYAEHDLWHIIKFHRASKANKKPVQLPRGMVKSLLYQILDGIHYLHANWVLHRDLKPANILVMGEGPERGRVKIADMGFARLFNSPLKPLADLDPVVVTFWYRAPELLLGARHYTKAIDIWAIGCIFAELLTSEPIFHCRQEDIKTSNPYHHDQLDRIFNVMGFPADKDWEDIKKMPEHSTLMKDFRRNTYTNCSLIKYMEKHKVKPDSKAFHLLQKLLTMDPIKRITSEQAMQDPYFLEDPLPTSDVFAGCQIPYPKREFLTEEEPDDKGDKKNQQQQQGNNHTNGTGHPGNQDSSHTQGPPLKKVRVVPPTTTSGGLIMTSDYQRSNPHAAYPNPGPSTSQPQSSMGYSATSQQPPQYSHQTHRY
# Sequence (Q9BWU1 whole entry, looked up): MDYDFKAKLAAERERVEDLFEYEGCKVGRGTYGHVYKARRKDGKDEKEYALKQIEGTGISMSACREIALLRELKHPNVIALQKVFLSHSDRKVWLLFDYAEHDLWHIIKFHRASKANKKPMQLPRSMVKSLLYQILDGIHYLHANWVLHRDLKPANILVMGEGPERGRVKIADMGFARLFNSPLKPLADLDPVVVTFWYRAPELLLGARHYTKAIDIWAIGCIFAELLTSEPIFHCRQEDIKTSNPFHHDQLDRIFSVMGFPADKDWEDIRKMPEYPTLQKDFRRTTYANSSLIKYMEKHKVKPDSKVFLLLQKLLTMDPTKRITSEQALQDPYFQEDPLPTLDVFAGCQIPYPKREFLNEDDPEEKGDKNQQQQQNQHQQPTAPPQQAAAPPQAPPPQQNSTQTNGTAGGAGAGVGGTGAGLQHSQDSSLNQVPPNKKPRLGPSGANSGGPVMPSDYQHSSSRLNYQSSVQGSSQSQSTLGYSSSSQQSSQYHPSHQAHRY
# measurement context: ST-2
# Description: Inhibition of CDK8/CDK19 in ST2 cells by alkaline phosphatase activity assay
property measured: log10 of EC200 (log10 of the value in nM)
Use the decimal logarithm of EC200 (nM).

Guide cases for log10 of EC200, answers given:
COc1ccc(N2CCCN(c3ccnc4sc(C(N)=O)c(N)c34)CC2)cc1 ... 2.06
CN(C)C(=O)Cc1ccc(N2CCCN(c3ccnc4sc(C(N)=O)c(N)c34)CC2)cc1 ... 0.82
CNC(=O)c1ccc(N2CCCN(c3ccnc4sc(C(N)=O)c(N)c34)CC2)cc1 ... 1.73
Cc1ccc(N2CCCN(c3ccnc4sc(C(N)=O)c(N)c34)CC2)cc1 ... 1.94

# next compound below
Any idea what log10 of EC200 was measured for CN(C)C(=O)c1ccc(N2CCCN(c3ccnc4sc(C(N)=O)c(N)c34)CC2)cc1 ? 1.50
